Recorded Ki for the following compounds
Target: NanIGH33 (Clostridium perfringens, UniProt Q59310)
Sequence (Q59310 243-694 limits assumed): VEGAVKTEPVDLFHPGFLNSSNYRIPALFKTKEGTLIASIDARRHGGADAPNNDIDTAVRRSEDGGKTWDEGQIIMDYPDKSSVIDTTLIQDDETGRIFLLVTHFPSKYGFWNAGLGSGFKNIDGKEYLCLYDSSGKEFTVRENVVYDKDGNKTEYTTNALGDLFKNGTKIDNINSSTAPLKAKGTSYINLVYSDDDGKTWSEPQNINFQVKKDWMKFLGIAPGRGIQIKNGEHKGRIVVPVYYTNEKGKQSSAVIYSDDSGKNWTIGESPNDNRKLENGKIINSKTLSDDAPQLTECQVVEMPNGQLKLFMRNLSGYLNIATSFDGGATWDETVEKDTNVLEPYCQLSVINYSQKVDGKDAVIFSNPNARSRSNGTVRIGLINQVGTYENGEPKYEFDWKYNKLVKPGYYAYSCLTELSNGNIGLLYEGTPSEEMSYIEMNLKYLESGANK
Test: biochemical
Assay type: biochemical
Value Kind: Ki

| Smiles Code | Value Kind | Reported |
| --- | --- | --- |
| CC(=O)N[C@H]1NC[C@H](C(=O)O)[C@H](O)[C@@H]1O | Ki | 10.7 µM |
| CC(=O)N[C@H]1[C@H]([C@H](O)[C@H](O)CO)OC(C(=O)O)=C[C@@H]1N=C(N)N | Ki | > 100 µM |
| CCOC(=O)C1=C[C@@H](OC(CC)CC)[C@H](NC(C)=O)[C@@H](N)C1 | Ki | > 100 µM |
